FYI, the data here is from PubChem BioAssay AID248.

- System: L1210 leukemia ip in BDF1 mice, survival T/C
- protocol description: NCI In Vivo Anticancer Drug Screen. Data for tumor model L1210 Leukemia (intraperitoneal) in B6D2F1 (BDF1) mice
- details: endpoint: mean survival time; dose: 200.0 mg/kg/injection; schedule: Q04DX003 (ip); vehicle: Klucel (hydroxypropylcellulose) (HPC); higher = longer survival
Toxic doses and inconclusive results are not listed.
measured parameter: T/C

T/C for `O=S(=O)(Nc1ccc2ccccc2c1)c1cccc2ccccc12` is 93 % of control

T/C for `N#CCCN(C(=S)Nc1cccc(C(F)(F)F)c1)C1CCCCC1` is 97 % of control

T/C for `O=C(O)c1ccc(/C=N\Nc2ccccc2)cc1` is 100 % of control

T/C for `O=C(O)c1cc(C(Cl)(Cl)Cl)ccc1C(Cl)(Cl)Cl` is 103 % of control

T/C for `Cc1ccc(NC(=O)NCCBr)cc1C` is 93 % of control

T/C for Cc1ccc(Cl)cc1N1C(=O)CC(Sc2ccccc2N)C1=O (stereo unspecified) is 95 % of control

T/C for `O=C1C(Br)=CC(=C2C=C(Br)C(=O)C(Br)=C2)C=C1Br` is 108 % of control

T/C for `COc1c(OC)c(C(C)C)c2c(c1C(=O)O)C(=O)OC2=O` is 88 % of control

T/C for `c1ccc2[nH]c(/N=N/c3nc4ccccc4[nH]3)nc2c1` is 98 % of control

T/C for O=C(O)C(Cc1cc(I)c(O)c(I)c1)c1ccccc1 (stereo unspecified) is 100 % of control

T/C for O=C1OC(c2ccccc2)(C2(c3ccccc3)C=C(c3ccccc3)C(=O)O2)C=C1c1ccccc1 (stereo unspecified) is 103 % of control

====

- System: L1210 leukemia ip in BDF1 mice, survival T/C
- protocol description: NCI In Vivo Anticancer Drug Screen. Data for tumor model L1210 Leukemia (intraperitoneal) in B6D2F1 (BDF1) mice
- details: endpoint: mean survival time; dose: 400.0 mg/kg/injection; schedule: Q01DX001 (ip); vehicle: saline with Tween-80; higher = longer survival
Toxic doses and inconclusive results are not listed.
Could you please report measured T/C for the items listed next?

T/C for CCCCCCCCCCCC(=O)OCC1(C)COC(c2ccccc2)=N1 (configuration not stated) is 104 % of control

T/C for `CCCN(CCC)/N=N/c1nc[nH]c1C(N)=O` is 113 % of control

T/C for `COc1cc(C=O)ccc1OC(=O)Nc1cc(Cl)ccc1C` is 97 % of control

T/C for CCCCCCC(C)CCCC (configuration not stated) is 86 % of control

T/C for `Cc1cc(Cl)ccc1NC(=O)Oc1cc(C)c(Cl)c(C)c1Cl` is 101 % of control

T/C for CC12CC=C3c4ccc(S)cc4CCC3C1CCC2=O (configuration not stated) is 89 % of control

T/C for `c1ccc(-c2ccn(C3CCCCC3)c2-c2ccccc2)cc1` is 92 % of control

T/C for `O=C(Nc1ccccc1)Nc1ccc(Cl)c(Cl)c1` is 90 % of control

T/C for `O=C1OC(c2ccccc2)=N/C1=C/c1ccc(OCc2ccccc2)c(OCc2ccccc2)c1` is 86 % of control

T/C for `O=S(=O)(NNS(=O)(=O)c1ccccc1)c1ccccc1` is 88 % of control

T/C for `CC(=O)Oc1cccc(OC(=O)Nc2cccc(Cl)c2C)c1` is 93 % of control

T/C for `CC(=O)/C(=C\N(C)C)C(=O)Nc1ccccn1` is 93 % of control
